system: HIV-1 (IIIB); assay: microbe, parasite or virus in culture; format: cell-based; conditions: protection of CEM cells against virus-induced cytopathicity at the concentration in the previous column
experimentalEndpoint: HIV-1 % Protection (%)

molecule	studySystem	experimentalEndpoint	numericReadout
CC(C)c1ccc(C(C)C)c(CS(=O)(=O)c2cccc[n+]2[O-])c1	HIV-1 (IIIB)	HIV-1 % Protection	37.5
Cc1ccc(C)c(C(C)S(=O)(=O)c2cccc[n+]2[O-])c1 (stereo not drawn)	HIV-1 (IIIB)	HIV-1 % Protection	37.5
Cc1ccc[n+]([O-])c1S(=O)(=O)Cc1c(Cl)cccc1Cl	HIV-1 (IIIB)	HIV-1 % Protection	0.0
COc1ccc(CS(=O)(=O)c2cccc[n+]2[O-])cc1	HIV-1 (IIIB)	HIV-1 % Protection	37.5
Cc1ccc[n+]([O-])c1S(=O)(=O)C(C)c1ccccc1 (stereo not drawn)	HIV-1 (IIIB)	HIV-1 % Protection	0.0
Cc1ccc2ccccc2c1CS(=O)(=O)c1cccc[n+]1[O-]	HIV-1 (IIIB)	HIV-1 % Protection	37.5
CCCCCCCC(c1cc(C)ccc1C)S(=O)(=O)c1cccc[n+]1[O-] (stereo not drawn)	HIV-1 (IIIB)	HIV-1 % Protection	0.0
Cc1ccc(C)c(C(C)[S+]([O-])c2cccc[n+]2[O-])c1 (stereo not drawn)	HIV-1 (IIIB)	HIV-1 % Protection	0.0
O=S(=O)(Cc1c(Cl)ccc(Cl)c1Cl)c1cccc[n+]1[O-]	HIV-1 (IIIB)	HIV-1 % Protection	37.5
